target: Kappa-type opioid receptor (Homo sapiens); experiment: Agonist activity at human kappa opioid receptor by [35S]GTPgammaS binding assay; format: functional
Overview of reported EC50 across a group of molecules:
// unit must come after the numeric part

Smiles notation	Tested system	Recorded endpoint	Value observed
COC(=O)[C@@H]1C[C@H](OC(C)=O)C[C@H]2[C@@]1(C)CC[C@H]1C(=O)O[C@H](c3ccoc3)C[C@]21C	Kappa-type opioid receptor (Homo sapiens)	EC50	280 nM

For the next question, use this molecule.
For the molecule COC(=O)[C@@H]1C[C@H](OC(C)=O)[C@H](OS(C)(=O)=O)[C@H]2[C@@]1(C)CC[C@H]1C(=O)O[C@H](c3ccoc3)C[C@]21C , the measured EC50 on Kappa-type opioid receptor (Homo sapiens) was 2700 nM

* * *

target: Kappa-type opioid receptor (Homo sapiens, UniProt P41145)
Sequence (P41145 whole entry): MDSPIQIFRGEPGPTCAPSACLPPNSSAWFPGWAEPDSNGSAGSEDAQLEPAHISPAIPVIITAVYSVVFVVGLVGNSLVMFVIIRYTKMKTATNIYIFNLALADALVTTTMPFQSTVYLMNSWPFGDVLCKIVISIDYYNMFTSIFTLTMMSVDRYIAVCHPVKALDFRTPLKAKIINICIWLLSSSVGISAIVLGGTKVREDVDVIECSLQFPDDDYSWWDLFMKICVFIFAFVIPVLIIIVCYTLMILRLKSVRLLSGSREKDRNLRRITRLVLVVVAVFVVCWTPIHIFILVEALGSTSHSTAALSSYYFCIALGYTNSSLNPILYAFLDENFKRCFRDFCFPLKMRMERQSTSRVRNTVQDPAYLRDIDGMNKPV
Class YES: Ke at least 2000 nM. Class NO: Ke below 2000 nM.

Smiles notation	Assigned category
COC(=O)[C@@H]1CC(=O)C=C2[C@@]1(C)CC[C@H]1C(=O)O[C@H](c3ccoc3)C[C@]21C	NO
COC(=O)[C@@H]1C[C@H](OC(=O)c2ccccc2)C[C@H]2[C@@]1(C)CC[C@H]1C(=O)O[C@H](c3ccoc3)C[C@]21C	YES

Answer whether Ke of COC(=O)[C@@H]1C[C@H](OC(=O)c2ccccc2)[C@H](O)[C@H]2[C@@]1(C)CC[C@H]1C(=O)O[C@H](c3ccoc3)C[C@]21C is greater than or equal to 2000 nM.
NO

Is Ke at least 2000 nM? Consider COC(=O)[C@@H]1C[C@H](OC(C)=O)[C@H](O)[C@H]2[C@@]1(C)CC[C@H]1C(=O)O[C@H](c3ccoc3)C[C@]21C
YES

* * *

target: UniProtKB P41145
// reported Ke per item
Number in nM, nothing else.

Observe how each entry below is paired with its result.
Smiles notation	Unit spec	Ke
COC(=O)[C@@H]1C[C@H](OC(C)=O)C=C2[C@@]1(C)CC[C@H]1C(=O)O[C@H](c3ccoc3)C[C@]21C	nM	200
COC(=O)[C@@H]1C[C@H](OC(=O)c2ccccc2)C=C2[C@@]1(C)CC[C@H]1C(=O)O[C@H](c3ccoc3)C[C@]21C	nM	1740

Then this compound:
Reported Ke for COC(=O)[C@@H]1C[C@H](OC(C)=O)C[C@H]2[C@@]1(C)CC[C@H]1C(=O)O[C@H](c3ccoc3)C[C@]21C was 170
